Below, each entry is listed alongside its reported IC50.
- Tested on: MOLM-13 cells
- Experimental protocol: Cell viability assay (CellTiter-Glo) in MOLM-13 cells, alone or with gilteritinib
- Type: cell-based
- Experimental parameters: Homo sapiens, MOLM-13, 72 h, MOLM-13 cells, compound alone (without gilteritinib), three days, CellTiter-Glo; read-out: MOLM-13 IC50

Compound	Readout type	Endpoint value
O=C1CCC(N2C(=O)c3ccc(NC[C@H]4C[C@H](n5cc(-c6nccc7ncccc67)c(C6CC6)n5)C4)cc3C2=O)C(=O)N1 (stereo partly shown) [GS-281]	IC50	10 to 100 nM
O=C1CCC(N2Cc3c(Nc4ccnc(Nc5ccc(N6CCC(n7cc(-c8cnc9ccccc9n8)cn7)CC6)cc5)n4)cccc3C2=O)C(=O)N1 (stereo not shown) [GS-027]	IC50	100 to 1000 nM
CN1CCN(c2ccc3ncc(-c4cnn([C@H]5C[C@H](CCCNc6ccc7c(c6)C(=O)N(C6CCC(=O)NC6=O)C7=O)C5)c4)nc3c2)CC12CC2 (stereo partly shown) [GS-414]	IC50	100 to 1000 nM
O=C1CCC(N2Cc3c(NC4CCCC(CCCCn5cc(-c6cnc7ccccc7n6)cn5)C4)cccc3C2=O)C(=O)N1 (stereo not shown) [GS-142]	IC50	> 1000 nM
O=C1CCC(N2C(=O)c3ccc(NC[C@H]4C[C@H](n5cc(-c6cnc7ccc(CN8CCOCC8)cc7n6)c(C6CC6)n5)C4)cc3C2=O)C(=O)N1 (stereo partly shown) [GS-067]	IC50	> 1000 nM
O=C(CC1CC1n1cc(-c2cnc3ccccc3n2)cn1)NCc1ccc2c(c1)CN(C1CCC(=O)NC1=O)C2=O (stereo not shown) [GS-109]	IC50	> 1000 nM
O=C1CCC(N2C(=O)c3ccc(NCCCCCC(=O)N4CC(Oc5ccccc5)C4)cc3C2=O)C(=O)N1 (stereo not shown) [GS-334]	IC50	> 1000 nM
O=C1CCC(N2Cc3ccc(CCCCCC(=O)N4CCC(c5ccccn5)CC4)cc3C2=O)C(=O)N1 (stereo not shown) [GS-104]	IC50	> 1000 nM

Consider the compound shown here: O=C1CCC(N2C(=O)c3ccc(NCCCN4CC(n5cc(-c6cnc7ccccc7n6)cn5)C4)cc3C2=O)C(=O)N1 (stereo not shown) [GS-371] What is its recorded IC50? 100 to 1000 nM

Consider the compound shown here: O=C1CCC(N2Cc3cc(NC(=O)C(F)(F)c4cccc(N5CCC(n6cc(-c7cnc8ccccc8n7)cn6)CC5)c4)ccc3C2=O)C(=O)N1 (stereo not shown) [GS-500] What is its recorded IC50? < 10 nM

Consider the compound shown here: O=C1CCC(N2C(=O)c3ccc(NCCC[C@H]4C[C@H](n5cc(-c6cnc7ccc(OC8CCNCC8)cc7n6)c(C6CC6)n5)C4)cc3C2=O)C(=O)N1 (stereo partly shown) [GS-229] What is its recorded IC50? 10 to 100 nM

Consider the compound shown here: Cc1nn(CCCCCCNc2ccc3c(c2)C(=O)N(C2CCC(=O)NC2=O)C3=O)c(C)c1-c1ncc2ccccc2n1 (stereo not shown) [GS-151] What is its recorded IC50? 10 to 100 nM

Consider the compound shown here: CN1CCC(c2ccc3nc(-c4cnn([C@H]5C[C@@H](CCCNc6ccc7c(c6)C(=O)N(C6CCC(=O)NC6=O)C7=O)C5)c4)cnc3c2)CC1 (stereo partly shown) [GS-432] What is its recorded IC50? > 1000 nM

----------
- System: MOLM-13 cells
- Experimental protocol: Cell viability assay (CellTiter-Glo) in MOLM-13 cells, alone or with gilteritinib
- Format: cell-based
- Experimental parameters: Homo sapiens, MOLM-13, 72 h, MOLM-13 cells, compound alone (without gilteritinib), three days, CellTiter-Glo; read-out: MOLM-13 IC50
Readout type: IC50

Guide cases for IC50, answers given:
>>> df
                                   compound  endpoint_value
0  O=C1CCC(N2C(=O)c3ccc(NCCCCCCN4CCC(O)CC4)cc3C2=O)C(=O)N1 (stereo not shown)       > 1000 nM
1  O=C1CCC(N2C(=O)c3ccc(NC[C@H]4C[C@H](n5cc(-c6cnc7ccc(N8CCOCC8)cc7n6)cn5)C4)cc3C2=O)C(=O)N1 (stereo partly shown)    10 to 100 nM
2  O=C1CCC(N2Cc3c(Nc4ccnc(Nc5ccc(CN6CCC(n7cc(-c8cnc9cccc(Br)c9n8)cn7)CC6)cc5)n4)cccc3C2=O)C(=O)N1 (stereo not shown)       > 1000 nM

Consider the compound shown here: CN1CCC(c2ccc3ncc(-c4cnn([C@H]5C[C@H](CCCNc6ccc7c(c6)C(=O)N(C6CCC(=O)NC6=O)C7=O)C5)c4)nc3c2)CC1 (stereo partly shown) What is its recorded IC50? 100 to 1000 nM

Consider the compound shown here: O=C1CCC(N2Cc3c(NC4CCCC(CCCC(=O)N5CCC(n6cc(-c7cnc8ccccc8n7)cn6)CC5)C4)cccc3C2=O)C(=O)N1 (stereo not shown) What is its recorded IC50? > 1000 nM

Consider the compound shown here: O=C1CCC(N2Cc3ccc(CCCCC4CC(n5cc(-c6cnc7ccccc7n6)cn5)C4)cc3C2=O)C(=O)N1 (stereo not shown) What is its recorded IC50? > 1000 nM

Consider the compound shown here: O=C1CCC(N2C(=O)c3ccc(NCCC[C@H]4C[C@@H](n5cc(-c6cnc7ccc(N8CCOCC8)cc7n6)cn5)C4)cc3C2=O)C(=O)N1 (stereo partly shown) What is its recorded IC50? 100 to 1000 nM

Consider the compound shown here: O=C1CCC(N2C(=O)c3ccc(NC[C@H]4C[C@H](n5cc(-c6ccc7c(n6)CCC7)c(C6CC6)n5)C4)cc3C2=O)C(=O)N1 (stereo partly shown) What is its recorded IC50? 10 to 100 nM

Consider the compound shown here: O=C1CCC(N2C(=O)c3ccc(NCCCCCC(=O)N4CCC(n5cc(-c6cnc7cccc(N8CCOCC8)c7n6)cn5)CC4)cc3C2=O)C(=O)N1 (stereo not shown) What is its recorded IC50? > 1000 nM

----------
Below, each entry is listed alongside its reported pIC50.
- System: MOLM-13 cells
- Experimental protocol: Cell viability assay (CellTiter-Glo) in MOLM-13 cells, alone or with gilteritinib
- Type: cell-based
- Experimental parameters: Homo sapiens, MOLM-13, 72 h, MOLM-13 cells, compound alone (without gilteritinib), three days, CellTiter-Glo; read-out: MOLM-13 IC50
pIC50: −log10 of the molar value.

Guide cases for pIC50, answers given:
Compound	pIC50
O=C1CCC(N2Cc3c(Nc4ccnc(NCC(=O)N5CCC(n6cc(-c7cnc8ccccc8n7)cn6)CC5)n4)cccc3C2=O)C(=O)N1 (stereo not drawn) [GS-091]	< 6.00
Cc1cccc(-c2cnn([C@H]3C[C@H](CCCNc4ccc5c(c4)C(=O)N(C4CCC(=O)NC4=O)C5=O)C3)c2)n1 (stereo partly drawn) [GS-584]	6.00 to 7.00
Cc1nn([C@H]2C[C@H](CCCNc3ccc4c(c3)C(=O)N(C3CCC(=O)NC3=O)C4=O)C2)cc1-c1cnc2ccc(N3C[C@H]4C[C@@H]3CN4C)cc2n1 (stereo partly drawn) [GS-407]	< 6.00
O=C1CCC(N2C(=O)c3ccc(NCCNCC4CC4n4cc(-c5cnc6ccccc6n5)cn4)cc3C2=O)C(=O)N1 (stereo not drawn) [GS-118]	7.00 to 8.00
Cc1nn(CCCCCCNc2ccc3c(c2)C(=O)N(C2CCC(=O)NC2=O)C3=O)c(C)c1-c1cnc2cccc(C#N)c2n1 (stereo not drawn) [GS-166]	7.00 to 8.00
Cc1nn(CCCCCCNc2ccc3c(c2)C(=O)N(C2CCC(=O)NC2=O)C3=O)c(C)c1-c1cnccn1 (stereo not drawn) [GS-146]	6.00 to 7.00
O=C1CCC(N2Cc3c(NC4CCC(Nc5cccc(N6CCC(n7cc(-c8cnc9ccccc9n8)cn7)CC6)c5)CC4)cccc3C2=O)C(=O)N1 (stereo not drawn) [GS-378]	7.00 to 8.00
O=C1CCC(N2C(=O)c3ccc(NCCCCCCn4cc(-c5cnc6cccc(C7CC7)c6n5)cn4)cc3C2=O)C(=O)N1 (stereo not drawn) [GS-389]	6.00 to 7.00

Consider the compound shown here: O=C1CCC(N2C(=O)c3ccc(NCCC[C@H]4C[C@H](n5cc(-c6nccc7ccncc67)c(C6CC6)n5)C4)cc3C2=O)C(=O)N1 (stereo partly drawn) [GS-630] What is its recorded pIC50? < 6.00

Consider the compound shown here: O=C1CCC(N2C(=O)c3ccc(NCCCCCC(=O)N4CCC(O)(c5ccccc5)CC4)cc3C2=O)C(=O)N1 (stereo not drawn) [GS-333] What is its recorded pIC50? < 6.00

Consider the compound shown here: O=C1CCC(N2Cc3c(Nc4ccnc(Nc5ccc(CN6CCC(n7cc(-c8cnc9ccccc9n8)cn7)CC6)cc5)n4)cccc3C2=O)C(=O)N1 (stereo not drawn) [GS-031] What is its recorded pIC50? 7.00 to 8.00
